# Lookup of reported growth keyed by entry
System: CCRF-CEM leukemia
Test: NCI-60 one-dose screen, 48 h (100 = growth as untreated, 0 = no growth, -100 = all killed)
Conditions: 10 µM
About 83,000 compounds went through this panel and 20% of them were active in at least one assay; those are over-represented in the sample as a whole.
Answer format: numeric, % implied, no suffix.

The examples below pair each entry with its known result.
Cc1cc(N(CCOS(C)(=O)=O)CCOS(C)(=O)=O)ccc1C=Nc1ccc(-c2nc(Cc3ccccc3)sc2C)cc1 = 23.4
O=[N+]([O-])c1cc[n+]([O-])cc1 = 121
C#CCN(Cc1ccc2nc(N)[nH]c(=O)c2c1)c1ccc(C(=O)NC(CCC(=O)O)C(=O)O)cc1 (centres undefined) = 22.5

Request: Output growth of `Cc1ccc(Sc2ccccc2N)cc1`
Result: 88.2
